Source listed as patent US12371454B2.

TARGET OR TEST SYSTEM: Kras and SOS1 (biotin-tagged human Kras loaded with GDP, His-tagged human SOS1) (Homo sapiens, UniProt P01116, G12D)
Construct: made in house; host or cells: E. coli (stated for Kras only)
Sequence (P01116 1-188 isoform P01116-2 G12D): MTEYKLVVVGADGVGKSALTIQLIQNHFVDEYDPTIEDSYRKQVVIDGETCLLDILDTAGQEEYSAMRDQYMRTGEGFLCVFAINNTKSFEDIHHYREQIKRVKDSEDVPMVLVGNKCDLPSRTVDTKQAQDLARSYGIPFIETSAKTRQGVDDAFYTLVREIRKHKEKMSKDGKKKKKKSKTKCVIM
MEASUREMENT PROTOCOL: Protein-protein interaction inhibition between Kras and SOS1 (KrasGl2D-SOS PPI) using AlphaScreen
Assay type: binding
ASSAY CONDITIONS: AlphaScreen; biotin-tagged human Kras loaded with GDP, His-tagged human SOS1; read-out: KRAS G12D-SOS PPI IC50
Starred links: 1 amine or outer side, 2 acyl side, 3 side chain; linkers in the order of their positions; H or OH if unused. Positions of bridges follow the written chain, without caps; N, C: chain ends. Non-standard residues stand in square brackets, D forms with d. Residues, ends and D or L forms follow the SMILES beside them. *: point of attachment. hPhe(3-Cl-4-CF3) = N[C@@H](CCc1ccc(C(F)(F)F)c(Cl)c1)C(=O)O; hPhe(3-F,4-CF3) = N[C@@H](CCc1ccc(C(F)(F)F)c(F)c1)C(=O)O; X38 = CN([C@@H](Cc1cccc(OC(F)(F)F)c1)C(=O)[*:2])[*:1]; hPhe(4-CF3) = N[C@@H](CCc1ccc(C(F)(F)F)cc1)C(=O)O; NMePhe(4-Cl) = CN[C@@H](Cc1ccc(Cl)cc1)C(=O)O; NMedβ3hAla = C[C@H](CC(=O)[*:2])N(C)[*:1]; NMeY = CN[C@@H](Cc1ccc(O)cc1)C(=O)O; NMeCha = CN[C@@H](CC1CCCCC1)C(=O)O; NMeChg = CN[C@H](C(=O)O)C1CCCCC1; NMeF = CN[C@@H](Cc1ccccc1)C(=O)O; NMeD = CN[C@@H](CC(=O)O)C(=O)O; CH2CONHtBu = CC(C)(C)NC(=O)C*; NMeL = CN[C@@H](CC(C)C)C(=O)O; NMeNle = CCCC[C@H](NC)C(=O)O; NMeV = CN[C@H](C(=O)O)C(C)C; d(β3hA) = C[C@@H](N)CC(=O)O; NMeA = CN[C@@H](C)C(=O)O; Piperidide = C1CCN(*)CC1; Pyrrolidide = C1CCN(*)C1; Ac5c = NC1(C(=O)O)CCCC1; Sar = CNCC(=O)O
Rule: measured IC50 below 70 nM gets satisfied; anything equal to or greater than 70 nM gets not satisfied.

# COMPOUND, CLASS NAME
measured = [
    ("CC[C@H](C)[C@@H]1NC(=O)[C@H](C)N(C)C(=O)C[C@@H](C(=O)N2CCCC2)NC(=O)[C@H](CC(C)C)N(C)C(=O)[C@H](Cc2ccccc2)N(C)C(=O)[C@H](COCC(=O)NC(C)(C)C)NC(=O)[C@H](CCc2ccc(C(F)(F)F)cc2)NC(=O)CN(C)C(=O)[C@H](Cc2ccc(Cl)cc2)N(C)C(=O)CN(C)C(=O)CN(C)C1=O [Compound 233] ([NMeA]I[Sar][Sar][NMePhe(4-Cl)][Sar][hPhe(4-CF3)]S(CH2CONHtBu)[NMeF][NMeL]D-Pyrrolidide; lactam N-11)", "satisfied"),
    ("CC[C@H](C)[C@@H]1NC(=O)[C@H](CC(C)C)N(C)C(=O)C[C@@H](C)N(C)C(=O)[C@H](C(C)C)N(C)C(=O)C2(CCCC2)NC(=O)[C@@H]2CCCN2C(=O)[C@H](CCc2ccc(C(F)(F)F)c(Cl)c2)NC(=O)CN(C)C(=O)[C@H](Cc2cccc(OC(F)(F)F)c2)N(C)C(=O)CN(C)C(=O)CN(C)C1=O [Compound 1637] (cyclo([Ac5c][NMeV][NMedβ3hAla][NMeL]I[Sar][Sar][X38][Sar][hPhe(3-Cl-4-CF3)]P))", "satisfied"),
    ("CCCC[C@H]1C(=O)N[C@H](C)CC(=O)N(C)[C@@H](CC(C)C)C(=O)N[C@@H]([C@@H](C)CC)C(=O)N(C)CC(=O)N(C)CC(=O)N(C)[C@@H](CC2CCCCC2)C(=O)N(C)CC(=O)N[C@@H](CCc2ccc(C(F)(F)F)c(F)c2)C(=O)N2CCC[C@H]2C(=O)NC2(CCCC2)C(=O)N1C [Compound 1518] (cyclo([Ac5c][NMeNle][d(β3hA)][NMeL]I[Sar][Sar][NMeCha][Sar][hPhe(3-F,4-CF3)]P))", "not satisfied"),
    ("CC[C@H](C)[C@@H]1NC(=O)[C@H](CC(C)C)N(C)C(=O)C[C@@H](C(=O)N2CCCCC2)N(C)C(=O)[C@H](C2CCCCC2)N(C)C(=O)C2(CCCC2)NC(=O)[C@H](Cc2ccc(OC)cc2)N(C)C(=O)[C@H](CCc2ccc(C(F)(F)F)c(Cl)c2)NC(=O)CN(C)C(=O)[C@H](CC2CCCCC2)N(C)C(=O)CN(C)C(=O)CN(C)C1=O [Compound 2171] ([NMeL]I[Sar][Sar][NMeCha][Sar][hPhe(3-Cl-4-CF3)][NMeY](Me)[Ac5c][NMeChg][NMeD]-Piperidide; lactam N-11)", "not satisfied"),
    ("CC[C@H](C)[C@@H]1NC(=O)[C@H](CC(C)C)N(C)C(=O)C[C@@H](C)NC(=O)[C@H](C(C)C)N(C)C(=O)C2(CCCC2)NC(=O)[C@@H]2CCCN2C(=O)[C@H](CCc2ccc(C(F)(F)F)c(Cl)c2)NC(=O)CN(C)C(=O)[C@H](Cc2ccc(OC)cc2)N(C)C(=O)CN(C)C(=O)CN(C)C1=O [Compound 1605] (cyclo([Ac5c][NMeV][d(β3hA)][NMeL]I[Sar][Sar][NMeY](Me)[Sar][hPhe(3-Cl-4-CF3)]P))", "satisfied"),
]
